Reported IC50 of inhibition of cell proliferation (BaF3 cells expressing MPL/mutCALR Type 1) values are given for each entry in this list.
assay system: T1, Human Type 1 mutCALR (human)
T1 chain: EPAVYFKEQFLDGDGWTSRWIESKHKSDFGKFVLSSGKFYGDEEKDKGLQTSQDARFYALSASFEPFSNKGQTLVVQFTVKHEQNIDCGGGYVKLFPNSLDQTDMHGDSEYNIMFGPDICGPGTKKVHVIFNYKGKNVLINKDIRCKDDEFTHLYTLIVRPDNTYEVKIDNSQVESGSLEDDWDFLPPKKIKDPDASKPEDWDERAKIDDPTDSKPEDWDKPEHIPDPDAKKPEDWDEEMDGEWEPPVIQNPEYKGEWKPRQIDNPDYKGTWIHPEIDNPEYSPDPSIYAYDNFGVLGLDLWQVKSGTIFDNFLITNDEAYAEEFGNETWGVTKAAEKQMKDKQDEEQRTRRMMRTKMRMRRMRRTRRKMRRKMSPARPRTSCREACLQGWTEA
assay overview: cell-based or functional assay
Respond numerically; units are µg/mL and should not be typed.

{"binder": "anti-mutCALR antibody clone 37 (antibody, human IgG1, lambda, V domains shown) VH: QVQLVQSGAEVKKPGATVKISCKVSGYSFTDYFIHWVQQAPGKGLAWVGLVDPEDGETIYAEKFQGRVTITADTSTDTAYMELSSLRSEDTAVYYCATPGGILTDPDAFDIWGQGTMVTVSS VL: QSALTQPASVSGSPGQSITISCTGTSSDVGGYNYVSWYQQHPGKAPKLMIYDVSNRPSGVSNRFSGSKSGNTASLTISGLQAEDEADYYCSSYTSSSTFYVFGTGTKVTVLG", "val": 0.201}
{"binder": "anti-mutCALR antibody clone 41 (antibody, human IgG1, lambda, V domains shown) VH: EVQLVQSGAEVKKPGASVKVSCKVSGYTLTELSMHWVRQAPGKGLEWMGLVDPEDGETIYAQKFQGRVTMTEDTSTDTAYMELSSLRSEDTAVYYCAREEWSGDGDDAFDIWGQGTMVTVSS VL: QSVLTQPPSVSAAPGQKVTISCSGSSSNIGSYSVSWYQQLPGTAPKLLIYDNNKRPSGIPDRFSGSNSGTSATLGITGLQTGDEADYYCGTWDSSLSAWVFGGGTKLTVLG", "val": 3.98}

For this binder ( anti-mutCALR antibody clone 36 (antibody, human IgG1, lambda, V domains shown) VH: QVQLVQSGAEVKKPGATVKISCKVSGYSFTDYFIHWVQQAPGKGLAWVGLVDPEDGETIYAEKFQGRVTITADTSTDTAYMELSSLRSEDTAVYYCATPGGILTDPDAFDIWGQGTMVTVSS VL: QSALTQPRSVSGSPGQSVTISCAGTGSDVGGYNYVSWYQHHPGKAPKLMIYDVNKRPSGVPDRFSGSKSGNTASLTISGLQAEDEADYYCSSYTSSSTFYVFGTGTKVTVLG ), measured IC50 of inhibition of cell proliferation (BaF3 cells expressing MPL/mutCALR Type 1) is 0.98

Documented IC50 of inhibition of cell proliferation (BaF3 cells expressing MPL/mutCALR Type 1) of anti-mutCALR antibody clone 53 (antibody, human IgG1, lambda, V domains shown) VH: QVQLVQSGAEVKKPGASVKVSCKVSGYTLTELSMHWVRQAPGKGLEWMGGFDPEDGETIYAQKFQGRVTMTEDTSTDTAYMELSSLRSEDTAVYYCATDIQGLAEFDYWGQGTLVTVSS VL: QSALTQPRSVSGSPGQSVTISCTGTNTDVGAYIDVSWYQQHPGKAPKLIIYDVSKWPSGVPDRFSGSKSGNTASLTISGLQAEDEADYYCCSYAGNHSFSFGGGTKVTVLG : 9.5

Data point: anti-mutCALR antibody clone 35 (antibody, human IgG1, lambda, V domains shown) VH: QVQLVQSGAEVKKPGATVKISCKVSGYSFTDYFIHWVQQAPGKGLAWVGLVDPEDGETIYAERFQGRVTITADTSTDTAYMELSSLRSEDTAVYYCATPGGILTDPDAFDIWGQGTMVTVSS VL: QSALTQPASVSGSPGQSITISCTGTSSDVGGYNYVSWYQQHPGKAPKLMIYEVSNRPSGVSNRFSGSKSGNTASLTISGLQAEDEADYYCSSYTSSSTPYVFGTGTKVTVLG ; IC50 of inhibition of cell proliferation (BaF3 cells expressing MPL/mutCALR Type 1) = 2.18
